protocol.description: cytotoxicity in HPDE-C7 cells, cell-based, fluorescence, HTS (AID 430);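 note: cells exposed to compound for 48 hours before viability readout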
assay.setup: HPDE-C7 pancreatic duct cells viability, at 10 µM
Out of some 63,000 compounds screened, about 1,100 (1.7%) were called active. Cut-off read from the data, not from the text of the source: active = cytotoxicity above about 50%; inactive = the rest. Many of the other results were omitted from the sample, so actives are more common in it than they were. Results with a measured potency or affinity are listed apart.
Outcome codes: active, inactive

compound: O=C1NC(NS(=O)(=O)c2ccccc2)(C(F)(F)F)C(=O)N1Cc1cccnc1 (centres undefined)
label.class: inactive

compound: O=C(CCCCn1c(=O)c2ccccc2n(Cc2ccc(F)cc2Cl)c1=O)NCc1ccco1
label.class: inactive

compound: O=C(Nc1nccs1)c1ccc(Br)o1
label.class: inactive

compound: c1ccc(CSc2nnc(-c3c[nH]c4ccccc34)o2)cc1
label.class: inactive

compound: Cc1cc(NCCCN)nc(-c2ccccc2O)n1
label.class: inactive

compound: COc1cc(OC)cc(C(=O)NC2CCN(Cc3nnnn3Cc3cccs3)CC2)c1
label.class: inactive

compound: Cc1cc(C)n(-c2nnc(C)n2/N=C/c2ccccc2OCc2ccccc2Cl)n1
label.class: inactive

compound: CCOC(=O)CN1C(=O)C(=O)c2cccc(C)c21
label.class: inactive

compound: CC(=O)NC(CCS(C)(=O)=O)C(=O)Nc1c(C)cccc1C (centres undefined)
label.class: inactive

compound: Cc1ccc(S(=O)(=O)Cn2nnnc2C(C(C)C)N2CCN(Cc3ccco3)CC2)cc1 (centres undefined)
label.class: inactive

compound: CCN(CC)S(=O)(=O)c1ccc(NC(=O)CSc2nnc(-c3ccc(F)cc3)o2)cc1
label.class: inactive

compound: COc1ccc(CCC(C(O)C(F)(F)F)S(=O)c2ccccc2)cc1 (centres undefined)
label.class: inactive

compound: Cn1c(=O)c(=O)n(C)c2cc(S(=O)(=O)N3CCCCC3)ccc21
label.class: inactive

compound: O=S1(=O)C=C(Sc2nc3ccccc3s2)c2ccccc21
label.class: active

compound: COCCn1c(SCC(=O)N2CCCC2)nnc1-c1ccoc1C
label.class: inactive

compound: CC(C)COC(=O)C(N)C(C(=O)OCC(C)C)c1ccccc1 (centres undefined)
label.class: inactive

compound: CC(C)c1ccc(-c2nc(N3CCCCC3)[nH]c(=O)c2C#N)cc1
label.class: inactive

compound: Cc1cc(Nc2ccccc2)nc(-c2ccccc2O)n1
label.class: inactive

compound: S=c1[nH]nc(Cc2c[nH]c3ccccc23)o1
label.class: inactive

compound: Clc1ccc2oc(-c3ccccc3)nc2c1
label.class: inactive

compound: CC(NS(=O)(=O)c1ccc(OCC(=O)N2CCOCC2)c(Cl)c1)c1ccccc1 (centres undefined)
label.class: inactive

compound: Cn1nnnc1SCC(=O)NCCc1ccc(Cl)cc1
label.class: inactive

compound: Cc1cc(C)nc(NCCCc2ccccc2)n1
label.class: inactive

compound: CCCCOc1cc(C)nc(NCc2ccccc2)n1
label.class: inactive
